Data credit: ChEMBL document CHEMBL1157539

I'd be grateful if you could share measured Inhibition for these entries.
tested on: HepG2; test: GSK_TCMDC: Percent inhibition of human HepG2 cell line. Test compounds present at 10uM.; type: functional
Numbers only, in %.

State recorded Inhibition for all listed compounds.
1. O=C(Nc1ccc(F)cc1)NC1CCN(c2ccnc3ccccc23)C1.O=C(O)C(F)(F)F (centres undefined)
2. Cc1cnc(NCC2CCCCC2)nc1N[C@@H](CC(C)C)C(=O)Nc1ccccc1.O=C(O)C(F)(F)F
3. O=C(/C=C/c1cccc(Cl)c1)NCCCCCN1CCC(c2c[nH]c3ccccc23)CC1
4. COc1ccc2nccc(N/N=C/c3cccc([N+](=O)[O-])c3)c2c1
5. CCOc1c(Br)cc(Cl)cc1CNCCCNc1nc2ccccc2[nH]1.Cl
6. Cc1cccc2nc(-c3ccc(-c4cccc(CN5CCCC5CN)c4)cc3)[nH]c12.O=C(O)C(F)(F)F (centres undefined)

1: 9; 2: 12; 3: 46; 4: 4; 5: 27; 6: 7

State recorded Inhibition for all listed compounds.
1. Cl.NC(=O)c1cnc2cc(-c3ccoc3)ccc2c1Nc1ccc(NC(=O)Nc2ccccc2Cl)cc1
2. Cc1cc2c(NC(=O)NC3CCN(CCc4ccccc4Cl)CC3)cccc2cn1.Cl
3. CCNCc1ccc(-c2cc3ncnc(Nc4ccc(OCc5cccc(F)c5)c(Cl)c4)c3s2)[nH]1
4. CCc1c(C)nc(-n2nc(C)cc2NC(=O)CC(c2ccccc2)c2ccccc2)[nH]c1=O
5. Oc1ccc(CCNc2nc(N/N=C/C=C/c3ccc(Cl)cc3)nc(N3CCNCC3)n2)cc1
6. CCOc1ccccc1NC(=O)Nc1ccc2c(c1)CCN(C1CCC1)CC2.Cl

[39, 13, 22, 41, 17, 15]

State recorded Inhibition for all listed compounds.
1. COc1ccc(S(=O)(=O)NC2CCN(CCNC(=O)Nc3cc(C)nc4ccccc34)C2)cc1 (centres undefined)
2. COc1ccc(NC(=O)/C=C/c2ccc(Cl)c(Cl)c2)cc1N1CCN(C)CC1

[0, 23]

State recorded Inhibition for all listed compounds.
1. Nc1nc2c(ncn2OC[C@H]2COP(=O)([O-])CO2)c(=O)[nH]1.[Na+]
2. Cc1cccc(C)c1N1CCN(C2CCC(NC(=O)c3cc4ccccc4[nH]3)CC2)CC1 (centres undefined)
3. Cl.O=C(Nc1cccc(Cl)c1Cl)N1CCc2cc3nccc(N4CCN5CCC[C@H]5C4)c3cc21

1: 1; 2: 31; 3: 9

State recorded Inhibition for all listed compounds.
1. O=C(O)C(F)(F)F.O=S(=O)(NC1CCN(c2ccnc3cc(Cl)ccc23)C1)c1cccc(F)c1 (centres undefined)
2. CN(C)CCNCc1ccc(-c2ccc3c(Nc4ccc(F)cc4Cl)ccnc3c2)o1
3. CC(C)NC[C@@H](O)[C@H](Cc1ccccc1)NC(=O)c1cc2c3c(c1)c(C(C)C)cn3CCS(=O)(=O)N2C.O=CO

[19, 31, 5]

State recorded Inhibition for all listed compounds.
1. COc1ccc(NC(=O)Nc2ccc(-c3ccccc3)cc2Cl)cc1N1CCN(C)CC1
2. Cc1nnsc1C(=O)Nc1ccc(-c2cccc(-c3nc4cc(C(F)(F)F)ccc4[nH]3)c2)cc1
3. Cc1nc(N)nc(N)c1OCCCCCCOc1ccccc1.Cl
4. CN(C)CCNCc1ncsc1-c1ccc2c(Nc3ccc(F)cc3Cl)ccnc2c1
5. Nc1cccc(-c2ccc3ccnc(N)c3c2)c1

40
69
59
0
30

State recorded Inhibition for all listed compounds.
1. Cc1cccc(C)c1CNc1ccnc2cc(Br)ccc12.Cl
2. CCCC[C@@H](C(=O)NCCc1ccc(Cl)cc1)N1C(=O)CCC1C(=O)Nc1ccc(Cl)c(Cl)c1 (some centres undefined)
3. C=CCn1c(=N)c(C(=O)NCc2ccc(F)cc2)cc2c(=O)n3cccc(C)c3nc21
4. Cc1cc(N2CCCC2)nc(NC(=N)Nc2cccc(C(F)(F)F)c2)n1
5. Cc1[nH]c(C)c(-c2ccc(CCc3ccc(F)cc3F)cc2)c(=O)c1Cl

1. 24
2. 4
3. 16
4. 33
5. 5

State recorded Inhibition for all listed compounds.
1. C=CCCCNCC(NCCCNc1cc(=O)c2ccccc2[nH]1)c1cc(Br)cc(Br)c1 (centres undefined)
2. COc1cc2ccccc2c(CON2C(=N)N=C(N)NC2(C)C)c1OC.Cl
3. Br.CCCC1N=C(N)N=C(N)N1c1ccc(OC)cc1 (centres undefined)
4. Cc1nc2ccc3ccc(CNc4ccc5c(c4)CN([C@H](CCC(=O)O)C(=O)O)C5=O)cc3c2c(=O)[nH]1
5. O=C(NC1CC1)c1ccc(N2CCCC(COc3ccccc3F)C2)nc1 (centres undefined)
6. Cl.N#Cc1ccc(C=CC(=O)NC2CCC(CCN3CCc4ccc(-c5cnccn5)cc4CC3)CC2)cc1 (centres undefined)
7. Cc1cc(N2CCCN(CC3CCCCC3)CC2)nc(Nc2ccc(Br)cc2)n1
8. O=C(O)C(F)(F)F.OCCN1CCN(Cc2ccc(-c3cccc(-c4nc5cc(C(F)(F)F)ccc5[nH]4)c3)cc2)CC1

[0, 2, 0, 38, 8, 37, 24, 29]

Need Inhibition, item `Cc1cnc(Nc2ccccc2)nc1NCCC(=O)Nc1ccccc1.O=C(O)C(F)(F)F`
10
